// reported Kv3.1 max R % for each item listed
Target: UniProt P48547
Experiment: cell-based
Type: cell-based
Conditions: maximum response relative to reference compound (50 microM)
measured-property: Kv3.1 max R % (%)

compound | subject-of-test | measured-property | output-unit | quantitative-readout
Cc1ccc(Oc2ccc(N3C(=O)NC(C)(C)C3=O)cn2)cc1OC(F)(F)F [RE2, reference compound] | UniProt P48547 | Kv3.1 max R % | % | 118
CC[C@@]1(C)NC(=O)N(c2cnc(Oc3ccc(C)c4c3C(C)(C)CO4)cn2)C1=O [Example 8] | UniProt P48547 | Kv3.1 max R % | % | 119
CC[C@H]1NC(=O)N(c2ccc(Oc3ccc(C)c4c3C3(CC3)CO4)nc2)C1=O [RE11, reference compound] | UniProt P48547 | Kv3.1 max R % | % | 152
Cc1ccc(Oc2ccc(N3C(=O)NC(C)(C)C3=O)nc2)cc1OC(F)(F)F [RE3, reference compound] | UniProt P48547 | Kv3.1 max R % | % | 79
